Biological target: T1, human IL-36γ, truncated (human, UniProt Q9NZH8 18-169)
T1 construct: Bought from R&D Systems (cat 6835-IL); also called human IL-36 gamma; hIL-36gamma
T1 sequence: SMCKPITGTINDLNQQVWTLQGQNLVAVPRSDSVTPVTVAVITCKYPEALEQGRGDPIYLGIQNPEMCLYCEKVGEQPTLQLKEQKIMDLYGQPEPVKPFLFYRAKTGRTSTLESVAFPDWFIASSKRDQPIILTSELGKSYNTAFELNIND
Test: SPR, Biacore, 1:1 Langmuir fit; heads of c3 and c4 printed swapped
# maps each entry to its kon
result.type: kon (M⁻¹ s⁻¹)

binder="144D464A (antibody, V domains shown, Mouse monoclonal from hybridoma; mouse IgG heavy and lambda light chain; also called mouse antibody 144D464A) VH: EVQLQQSGAELVKPGASVRLSCTASGFNIKDTYIHWVKQRPEQGLEWIGRIDPAIGTTRYDPKFQGKATITTDTSSDTVHLQFSSLTSEDTAVYYCARLHYFGNNFFFDYWGQGTTLTVSS VL: QAVVTQESALTTSPGEAVTLTCRSSSGAVTTSNYANWVQEKPDHLFAGLIGGTNDRAPGVPARFSGSLIGDKAALTITGAQTEDEAIYFCALWFSNHWVFGGGTKLTVL" result_type=kon assay_result=388000
binder="144L249B (antibody, V domains shown, Mouse monoclonal from hybridoma; mouse IgG heavy and lambda light chain; also called mouse antibody 144L249B) VH: EVQLQQSGAELVKPGASVKLSCTASGFNIKDTYIYWVKQRPEQGLEWIGRIDPAIGTTRYDPKFQGKATLTADTSSNTAFLQLSSLTSEDTAVYYCARYDYSGSSFYFDYWGRGTTLTVSS VL: QAVVTQESALTTSPGETVTLTCRSSTGAVTTSNYANWVQEKPDHLFTGLIGGTNNRAPGVPARFSGSLIGDKAALTITGAQTEDEAIYFCALWYSNHLVFGGGTKLTVL" result_type=kon assay_result=990000
binder="144L249B LV9 HV10c (antibody, V domains shown, Humanized) VH: QVQLVQSGAEVKKPGASVKVSCKASGFNIKDTYIYWVRQAPGQGLEWIGRIDPAIGTTRYDPKFQGKATLTADTSTNTAYLELSSLRSEDTAVYYCARYDYSGSSFYFDYWGQGTLVTVSS VL: QAVVTQEPSLTVSPGGTVTLTCRSSTGAVTTSNYANWVQEKPGQLFTGLIGGTNDRAPGVPARFSGSLLGGKAALTLSGAQPEDEADYFCALWYSNHLVFGGGTKLTVL" result_type=kon assay_result=999000
